B1: FAM189A2 (parent)
chain: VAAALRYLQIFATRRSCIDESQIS

- Variants of: B1
- assay.remarks: protein stability index of a GFP-peptide fusion (GPS, HEK-293T) (PSI 1-6); higher = more stable;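 further: lentivirally expressed fusions sorted by FACS into six bins by GFP to DsRed ratio, PSI derived from sequencing read proportions per bin multiplied by bin number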
- condition.parameters: c terminus: a fixed tail appended
Assign a class from recorded protein stability index; defined classes: group A (below 2), group B (2 to below 3), group C (3 or more)

I18L	group B

Turning now to a further variant:
Using the reported protein stability index, which band applies to L8Y ?
group C
